# system: RBD of SARS-CoV-2 spike protein binding to hACE2 receptor (Severe acute respiratory syndrome coronavirus 2, UniProt P0DTC2)

compound	Binding with RBD (% of control ± SD)
COc1cc2c(cc1OC)-c1cc3ccc(OC)c(OC)c3c[n+]1CC2 [Palmatine]	40.4 ± 6.1 % of control
C=C1CC[C@@H]2[C@](C)(CO)[C@H](O)CC[C@@]2(C)[C@@H]1C/C=C1/C(=O)OC[C@H]1O [Andrographolide]	22.1 ± 2.5 % of control
COc1c(O)cc2oc(-c3ccc(O)cc3)cc(=O)c2c1O [Hispidulin]	20.1 ± 6.0 % of control
O=C(/C=C/c1ccc(O)c(O)c1)O[C@@H]1C[C@](O)(C(=O)O)C[C@@H](O)[C@H]1O [Chlorogenic acid]	25.5 ± 2.5 % of control
O=c1oc2cc(O)ccc2c2ccc(O)cc12 [Urolithin A]	31.1 ± 4.6 % of control
Oc1ccc(/C=C/c2cc(O)cc(O)c2)cc1 [Trans-resveratrol]	22.3 ± 2.9 % of control
Oc1cc(O)c2c(c1)O[C@@H](c1cc(O)c(O)c(O)c1)[C@H](O)C2 [(−)-gallocatechin]	73.5 ± 6.7 % of control
O=C(O)c1cc(O)c(O)c(O)c1 [Gallic acid]	18.3 ± 4.5 % of control
Oc1cc(O)cc(O)c1 [Phloroglucinol]	69.5 ± 3.6 % of control
O=C1C[C@@H](c2ccc(O)cc2)Oc2cc(O)cc(O)c21 [Naringenin]	20 ± 5.1 % of control

###

Catalogue of Binding with RBD (% of control ± SD) readings, one per entry.
# system: RBD of SARS-CoV-2 spike protein binding to hACE2 receptor (Severe acute respiratory syndrome coronavirus 2, UniProt P0DTC2)

compound	Binding with RBD (% of control ± SD)
COc1cc(/C=C/c2ccc(O)cc2)cc(OC)c1	23.1 ± 2.8 % of control
O=c1c(O)c(-c2ccc(O)cc2O)oc2cc(O)cc(O)c12	30.5 ± 5.8 % of control
O=c1c(O)c(-c2ccc(O)cc2)oc2cc(O)cc(O)c12	15.6 ± 2.9 % of control
O=c1c(O)cc([C@H]2Oc3cc(O)cc(O)c3C[C@H]2O)cc2c([C@H]3Oc4cc(O)cc(O)c4C[C@H]3O)cc(O)c(O)c12	27.3 ± 1.4 % of control
O=c1c(O)c(-c2ccc(O)c(O)c2)oc2cc(O)cc(O)c12	22.4 ± 6.5 % of control
O=C(O)CC(O)C(=O)O (stereo not shown)	1.2 ± 3.7 % of control
C[C@@H]1O[C@@H](OC[C@H]2O[C@@H](Oc3c(-c4ccc(O)c(O)c4)oc4cc(O)cc(O)c4c3=O)[C@H](O)[C@@H](O)[C@@H]2O)[C@H](O)[C@H](O)[C@H]1O	20.6 ± 6.3 % of control
